Listed next: entries and their corresponding inhibition.
# Measurement Target: Aldo-keto reductase family 1 member B1 (Bos taurus) (UniProt P16116)
# Experimental Protocol: In vitro % decrease of aldose reductase measured in isolated partially purified bovine lens preparations at 10e-7 M concentration
Give just the numeric value; % need not be written.

Example entries begin here.
{"Chemical Structure": "COc1ccc2c(C(=O)N(C)CC(=O)O)cc(-c3ccccc3)cc2c1C(F)(F)F", "Measurement Target": "Aldo-keto reductase family 1 member B1 (Bos taurus) (UniProt P16116)", "inhibition [%]": 63}
{"Chemical Structure": "COC(=O)N(CC(=O)O)C(=O)c1c(F)ccc2c(C(F)(F)F)c(OC)ccc12", "Measurement Target": "Aldo-keto reductase family 1 member B1 (Bos taurus) (UniProt P16116)", "inhibition [%]": 86}
{"Chemical Structure": "CCCOc1ccc2c(C(F)(F)F)c(OC)ccc2c1C(=O)N(C)CC(=O)O", "Measurement Target": "Aldo-keto reductase family 1 member B1 (Bos taurus) (UniProt P16116)", "inhibition [%]": 46}
{"Chemical Structure": "COc1ccc2c(C(=S)N(C)CC(=O)O)cc(F)cc2c1Br", "Measurement Target": "Aldo-keto reductase family 1 member B1 (Bos taurus) (UniProt P16116)", "inhibition [%]": 86}
{"Chemical Structure": "COc1ccc2c(C(=S)N(C)CC(=O)O)c(OCC(F)(F)F)ccc2c1C(F)(F)F", "Measurement Target": "Aldo-keto reductase family 1 member B1 (Bos taurus) (UniProt P16116)", "inhibition [%]": 86}

INPUT: # inhibition lookup, item `COc1ccc2c(C(=S)N(C)CC(=O)O)cc(C)cc2c1Br`
OUTPUT: 85
